ASSAY_TARGET: Angiotensin-converting enzyme (Oryctolagus cuniculus)
Sequence (P12822 whole entry): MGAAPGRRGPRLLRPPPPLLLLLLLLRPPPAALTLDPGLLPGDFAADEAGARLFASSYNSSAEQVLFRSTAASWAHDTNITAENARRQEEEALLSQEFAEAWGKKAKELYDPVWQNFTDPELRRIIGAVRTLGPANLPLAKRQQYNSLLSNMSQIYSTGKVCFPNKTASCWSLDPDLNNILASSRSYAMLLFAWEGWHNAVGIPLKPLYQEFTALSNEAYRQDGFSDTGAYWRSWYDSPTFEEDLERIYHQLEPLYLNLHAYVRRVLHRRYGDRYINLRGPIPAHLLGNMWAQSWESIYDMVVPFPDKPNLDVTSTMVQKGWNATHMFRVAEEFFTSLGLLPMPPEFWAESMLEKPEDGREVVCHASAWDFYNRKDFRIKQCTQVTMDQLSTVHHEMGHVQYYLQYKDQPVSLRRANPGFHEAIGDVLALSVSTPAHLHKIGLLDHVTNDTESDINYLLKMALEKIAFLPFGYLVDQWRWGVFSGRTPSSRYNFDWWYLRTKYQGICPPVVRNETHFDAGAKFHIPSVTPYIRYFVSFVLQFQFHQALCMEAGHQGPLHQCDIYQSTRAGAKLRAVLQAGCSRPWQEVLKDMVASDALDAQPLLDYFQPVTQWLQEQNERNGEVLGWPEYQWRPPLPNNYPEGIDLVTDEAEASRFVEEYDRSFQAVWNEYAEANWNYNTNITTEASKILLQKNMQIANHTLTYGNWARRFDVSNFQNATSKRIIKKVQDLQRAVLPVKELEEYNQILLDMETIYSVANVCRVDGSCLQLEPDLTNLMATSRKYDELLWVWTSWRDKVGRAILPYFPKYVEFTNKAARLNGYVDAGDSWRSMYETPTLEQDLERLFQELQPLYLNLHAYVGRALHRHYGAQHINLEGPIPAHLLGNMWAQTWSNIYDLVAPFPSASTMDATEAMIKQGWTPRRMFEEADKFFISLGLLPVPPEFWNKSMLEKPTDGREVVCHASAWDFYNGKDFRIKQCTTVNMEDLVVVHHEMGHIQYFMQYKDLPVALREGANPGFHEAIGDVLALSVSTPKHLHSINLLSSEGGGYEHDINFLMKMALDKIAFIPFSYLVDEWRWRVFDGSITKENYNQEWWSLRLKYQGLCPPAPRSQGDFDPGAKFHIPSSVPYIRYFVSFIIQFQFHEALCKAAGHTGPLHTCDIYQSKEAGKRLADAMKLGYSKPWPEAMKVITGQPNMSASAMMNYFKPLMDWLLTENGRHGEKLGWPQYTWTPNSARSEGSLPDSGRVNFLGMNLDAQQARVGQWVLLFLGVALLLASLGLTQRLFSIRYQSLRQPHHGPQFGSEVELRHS
Literature survey of pIC50 (system: Angiotensin-converting enzyme (Oryctolagus cuniculus)).
pIC50 (log units): -log10 of the concentration in mol/L.

Q: For the compound shown here, `CCCCc1nc(Cl)c(C(=O)N[C@@H](Cc2c[nH]c3ccccc23)C(=O)OC)n1C` , give the reported pIC50.
Ans: 6.27

Q: Input `CC(C)C[C@H](NC(=O)[C@H](Cc1ccccc1)N(O)C=O)C(=O)N[C@@H](Cc1ccccc1)C(=O)O`
Ans: 3.64

Q: Also check CC(=O)SCC(C)C(=O)N(CC(=O)O)CC1CC2CC(C1C)C2(C)C (stereo not given)
Ans: 7.07

Q: Also CC(CS)C(=O)N(C1CC1)C(C)C(=O)O (stereo not given) , if possible.
Ans: 7.10

Q: Query `COc1ccc(/C=C/C(=O)c2cc(OC)c(OC)c(OC)c2)cc1F` next
Ans: 3.24

Q: // same read-out, input: `O=C(CS)NC1(C(=O)N[C@@H](Cc2ccc(O)cc2)C(=O)O)CCCC1`
Ans: 7.24

Q: Moving on to CC(=O)SCC(C)C(=O)N(CC(=O)O)c1cccc(F)c1 (stereo not given)
Ans: 7.29

Q: Ok, now `O=C(N[C@H](CCC(=O)N1[C@H](C(=O)O)C[C@@H]2CCCC[C@@H]21)C(=O)O)OCc1ccccc1`
Ans: 8.57

Q: Here is the next compound: CC(=O)SCC(C)C(=O)N(CC(=O)O)Cc1cccs1 (stereo not given)
Ans: 6.12
